Assign melting point to each entry below.

[Q] Please give the measured melting point for this compound: COCCCCC1(O)C2=NCCCN2c2ccccc21 (stereo not given)
[A] 128 to 139 °C

[Q] Please give the measured melting point for this compound: `CC(=O)c1cnc2c(n1)C(C)(C)CCC2(C)C`
[A] 68 to 69 °C

[Q] Please give the measured melting point for this compound: `CC(C)c1ccc2c(CCCCNS(=O)(=O)c3ccccc3)cc(C(=O)O)c-2cc1`
[A] 167 to 168 °C

[Q] Please give the measured melting point for this compound: `CON=C(c1ccon1)c1ccccc1COc1cc(C)ccc1C`
[A] 104 to 108 °C

[Q] Please give the measured melting point for this compound: `CN(C)c1ccc(-c2cnc3[nH]cc(C(=O)C4(C)CCCCC4)c3n2)cc1`
[A] 272 to 274 °C

====

measured-quantity: melting point

[Q] Please give the measured melting point for this compound: `N#Cc1ccc(Cn2cncn2)cc1-c1ccc(O)cc1`
[A] 211 to 213 °C

[Q] Please give the measured melting point for this compound: CCOC(=O)CN(C(=O)C(F)(F)F)C(Sc1ccccc1)P(=O)(O)ONC(C)C (stereo not given)
[A] 102 to 103 °C

[Q] Please give the measured melting point for this compound: `CNC(=NCCn1cc(Cn2ccnc2)c2ccccc21)NC#N`
[A] 172 to 173 °C

[Q] Please give the measured melting point for this compound: `CCOC(=O)C(=O)Nc1ccc2c(=O)n3c(nc2c1)C(=Cc1cccc(OC)c1OCC)CC3`
[A] 174 to 177 °C

[Q] Please give the measured melting point for this compound: `NC(=O)Cc1ccccc1Cn1ccc(OCc2ccc(F)cc2F)c(Br)c1=O`
[A] 178 to 183 °C

[Q] Please give the measured melting point for this compound: `CCOC(=O)CC[C@H](NC(=O)c1csc(CCCc2coc3nc(N)nc(N)c23)c1)C(=O)OCC`
[A] 79 to 80 °C

[Q] Please give the measured melting point for this compound: `CNC(=N[N+](=O)[O-])N(Cc1cnc(Cl)s1)C(C)=O`
[A] 105 to 106 °C

[Q] Please give the measured melting point for this compound: `O=C1CCn2cc(C(=O)NCc3ccc(Cl)cc3)c(=O)c3cc(CN4CCOCC4)cc(c32)N1`
[A] 235 to 240 °C

[Q] Please give the measured melting point for this compound: `CN1Cc2c(C#CC(C)(C)C)ncn2-c2cccc(Cl)c2C1=O`
[A] 126 to 128 °C

[Q] Please give the measured melting point for this compound: CP1(=O)c2ccccc2CN1c1ccc(Cl)c(Cl)c1 (stereo not given)
[A] 152 to 154 °C

====

Assign melting point to each entry below.

[Q] Please give the measured melting point for this compound: `CC(=O)Nc1nc(-c2ccc(C(C)(C)C)cc2)c(-c2ccncc2)s1`
[A] 280 to 281 °C

[Q] Please give the measured melting point for this compound: `COc1ccc2[nH]cc(C3=CCN(C)CC3)c2n1`
[A] 203 °C

[Q] Please give the measured melting point for this compound: `Cc1c(Cc2cccc(C(F)(F)F)c2)oc2c(-c3cccc(C(=O)NCCO)c3)cccc12`
[A] 158 to 159 °C

[Q] Please give the measured melting point for this compound: `Cn1c(OCC(F)(F)F)nn(C(=O)Oc2ccccc2)c1=O`
[A] 105 °C

[Q] Please give the measured melting point for this compound: `COc1ccc(-c2c(Cl)ncnc2NS(=O)(=O)c2ccc(C(C)C)cc2)cc1`
[A] 181 to 182 °C

[Q] Please give the measured melting point for this compound: `O=C(c1ccc(F)cc1)N1CCC[C@H](c2noc(-c3ccc(F)cn3)n2)C1`
[A] 108 to 110 °C

[Q] Please give the measured melting point for this compound: `COc1cncnc1N1CCN(CCCc2c[nH]c3ccc(N(C)S(=O)(=O)C(F)(F)F)cc23)CC1`
[A] > 230 °C

[Q] Please give the measured melting point for this compound: `Cc1ccc(-c2ccc(S(C)(=O)=O)cc2)n1CC(C)(C)S`
[A] 124 to 126 °C

[Q] Please give the measured melting point for this compound: CCCCCCCCCCCCCCCCCCNC(=O)OCC(CNS(=O)(=O)CCCCl)NC(C)=O (configuration not stated)
[A] 110 to 112 °C

[Q] Please give the measured melting point for this compound: `COCCNC(N)=Nc1nc(-c2cccc(CNC(C)=O)c2)cs1`
[A] 123 to 124 °C

[Q] Please give the measured melting point for this compound: `COc1ccc(Cc2cc(O)ccc2OC)cn1`
[A] 121 to 124 °C

[Q] Please give the measured melting point for this compound: `CN(Cc1ccccc1)c1nc(N)nc(-c2cc(Cl)ccc2Cl)n1`
[A] 163 to 164 °C

[Q] Please give the measured melting point for this compound: `CSc1nn2c(Cl)cc(C)nc2c1S(=O)(=O)c1ccccc1`
[A] 163 to 165 °C

[Q] Please give the measured melting point for this compound: CC1NC(=O)CC2(C)CC1c1ccccc1O2 (configuration not stated)
[A] 164 °C

[Q] Please give the measured melting point for this compound: `CC(=O)OCC(=O)Nc1cccc([N+](=O)[O-])c1C#N`
[A] 157 to 158 °C

[Q] Please give the measured melting point for this compound: COc1ccc2c(c1)OCC21C(=O)N(Cc2ccccn2)c2ccccc21 (configuration not stated)
[A] 122 to 123 °C

[Q] Please give the measured melting point for this compound: `Cc1noc(NS(=O)(=O)c2ccccc2C#N)c1Br`
[A] 152 to 155 °C

[Q] Please give the measured melting point for this compound: CCCc1c(OCCCOc2ccc3c(c2CCC)OC(CCC(=O)OCC)CC3)ccc(C(C)=O)c1O (configuration not stated)
[A] 68 to 70 °C

[Q] Please give the measured melting point for this compound: `Cc1c(Nc2c(C#N)cncc2-c2cc3cc(CN4CCCCC4)ccc3s2)ccc2[nH]ccc12`
[A] 174 to 175 °C

[Q] Please give the measured melting point for this compound: CC(c1ccccc1N1CCCC1)C(C(N)=O)c1ccc(C(=O)O)cc1 (configuration not stated)
[A] 155 to 157 °C

[Q] Please give the measured melting point for this compound: `CCc1nc2c(N)nc3ccc(-c4ccccc4)cc3c2n1CC(C)C`
[A] 233 to 235 °C

[Q] Please give the measured melting point for this compound: CC1(C)CCC2(Cc3ccc(Cl)cc3)OC2C1=O (configuration not stated)
[A] 69 to 70 °C

[Q] Please give the measured melting point for this compound: `Cn1cc(-c2ccccc2)c(=S)c(-c2ccccc2)c1`
[A] 168 to 171 °C

[Q] Please give the measured melting point for this compound: N#CC1C=Cc2cc(Cl)ccc2N1C(=O)c1ccccc1 (configuration not stated)
[A] 141 to 143 °C

[Q] Please give the measured melting point for this compound: CC(C)C1(C)N=C2c3ncccc3C(=O)N2C1=O (configuration not stated)
[A] 125 to 128 °C

[Q] Please give the measured melting point for this compound: `CCCc1nc2c(N)nc(C)c(C)c2n1CCCC(C)=O`
[A] 148 to 150 °C

[Q] Please give the measured melting point for this compound: `Cc1ccc(I)cc1O`
[A] 60 °C

[Q] Please give the measured melting point for this compound: `Cc1cncc(C)c1CO`
[A] 93 to 95 °C

[Q] Please give the measured melting point for this compound: `Nc1cc(Cl)ccc1CO`
[A] 104 to 105 °C

[Q] Please give the measured melting point for this compound: `COc1ccc(-c2nc(-c3ccccc3)n(CCCCCCCC(=O)O)c2-c2ccc(OC)cc2)cc1`
[A] 149 to 150 °C

[Q] Please give the measured melting point for this compound: `CC(=O)Oc1c(C=C(C#N)C#N)n(C(C)=O)c2ccccc12`
[A] 250 to 252 °C

[Q] Please give the measured melting point for this compound: `C=CCSCCON=C(C(=O)O)c1csc(NC=O)n1`
[A] 70 to 78 °C

[Q] Please give the measured melting point for this compound: `CCOc1c(-c2ccc(S(C)(=O)=O)cc2)cnn(-c2ccc(F)c(F)c2)c1=O`
[A] 121 to 123 °C

[Q] Please give the measured melting point for this compound: CCCc1cc(N2CCC(NCC(O)c3ccc4ccccc4n3)CC2)nc2sc(C(N)=O)c(N)c12 (configuration not stated)
[A] 159 to 161 °C

[Q] Please give the measured melting point for this compound: CCC1C(C)=NN=C(c2ccc(O)c(OC)c2)c2cc(OC)c(OC)cc21 (configuration not stated)
[A] 130 to 132 °C

[Q] Please give the measured melting point for this compound: Cc1ccc(C(F)(F)F)c2sc(Sc3ccc4c(c3)CCC3N(C)C(=O)CCC43C)nc12 (single isomer, unassigned; (+))
[A] 50 to 54 °C

[Q] Please give the measured melting point for this compound: `CCOC(=O)Cc1ccc(OCCCN2C(=O)c3ccccc3C2=O)c(OC)c1`
[A] 70 to 72 °C

[Q] Please give the measured melting point for this compound: `O=Cc1cnc(Br)cn1`
[A] 56 to 58 °C

[Q] Please give the measured melting point for this compound: `CCOC(=O)Nc1ccc(C2CCN(C(=O)OC(C)(C)C)CC2)cc1`
[A] 126 to 128 °C

[Q] Please give the measured melting point for this compound: `COc1cc(CC#N)c(CCNC(=O)C(F)(F)F)cc1OC`
[A] 131 °C

[Q] Please give the measured melting point for this compound: COc1cc(OC)nc(C(CC2CC2)C(=O)NS(C)(=O)=O)n1 (configuration not stated)
[A] 92 to 94 °C

[Q] Please give the measured melting point for this compound: `O=C1NCc2c1cc1ccc3c(c1c2-c1cccnc1)OCO3`
[A] 257 to 260 °C
